# Test system: biotinyl-Trp-oxazolone
# procedureText: self-aminoacylation, catalytic enhancement (BWO) (fold over background); higher = more active; k-Seq, kA / k0A0; sequences stand for … in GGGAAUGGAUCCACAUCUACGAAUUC…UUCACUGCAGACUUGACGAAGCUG
Variants at the floor of the assay were thinned out.
We use 4 as the dividing line for self-aminoacylation: on or above the line is 1, below is 0.

- sequenceData: "CCACCCUUCAAGCCAUCGGUC [Fam1B.1 aminoacylation ribozyme variant]"
  experimentalSystem: "biotinyl-Trp-oxazolone"
  qualitativeLabel: 0
- sequenceData: "AAGUGUGCUAAUCGUCGCAAG [Fam3.1 aminoacylation ribozyme variant]"
  experimentalSystem: "biotinyl-Trp-oxazolone"
  qualitativeLabel: 0
- sequenceData: "CGACUUCAAACAAUCGGACUG [Fam1A.1 aminoacylation ribozyme variant]"
  experimentalSystem: "biotinyl-Trp-oxazolone"
  qualitativeLabel: 0
- sequenceData: "AAGGUUGCUAAUAGUCGUAAG [Fam3.1 aminoacylation ribozyme variant]"
  experimentalSystem: "biotinyl-Trp-oxazolone"
  qualitativeLabel: 1
- sequenceData: "UUAUUUCAAACAAUCGGUCUG [Fam1A.1 aminoacylation ribozyme variant]"
  experimentalSystem: "biotinyl-Trp-oxazolone"
  qualitativeLabel: 0
- sequenceData: "UCACACUUCAAGUAAUCGGUC [Fam1B.1 aminoacylation ribozyme variant]"
  experimentalSystem: "biotinyl-Trp-oxazolone"
  qualitativeLabel: 1

----------
# Tested on: biotinyl-Phe-oxazolone
# procedureText: self-aminoacylation, catalytic enhancement (BFO) (fold over background); higher = more active; k-Seq, kA / k0A0; sequences stand for … in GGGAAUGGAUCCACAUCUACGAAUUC…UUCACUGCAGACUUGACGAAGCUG
This sample holds only a part of the variants without activity.
self-aminoacylation values by entry
observationType: self-aminoacylation

- sequenceData: "AAGUUUGAUAAUAGUCGCAAU [Fam3.1 aminoacylation ribozyme variant]"
  observed: 2.12
- sequenceData: "AAUUUUGCUAAUAAUCGCAAG [Fam3.1 aminoacylation ribozyme variant]"
  observed: 2.03
- sequenceData: "UUACUUCAAACAAGCGGUCUG [Fam1A.1 aminoacylation ribozyme variant]"
  observed: 6.3
- sequenceData: "AAGUUAGCUAAUAGGCGCAAG [Fam3.1 aminoacylation ribozyme variant]"
  observed: 2.32
- sequenceData: "AAGUUUGUUCAUAGUCGCAAG [Fam3.1 aminoacylation ribozyme variant]"
  observed: 2.01
- sequenceData: "AAGCUUGCUAAUAGUCGCAAA [Fam3.1 aminoacylation ribozyme variant]"
  observed: 2.75

----------
# System: biotinyl-Phe-oxazolone
# procedureText: self-aminoacylation, catalytic enhancement (BFO) (fold over background); higher = more active; k-Seq, kA / k0A0; sequences stand for … in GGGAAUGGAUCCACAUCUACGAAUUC…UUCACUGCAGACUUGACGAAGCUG
This sample holds only a part of the variants without activity.

- sequenceData: "ACGUUUGCUAAAAGUCGCAAG [Fam3.1 aminoacylation ribozyme variant]"
  self-aminoacylation: 3.93
- sequenceData: "GUACUUCAAGCAAUCGGUCUG [Fam1A.1 aminoacylation ribozyme variant]"
  self-aminoacylation: 8.1
- sequenceData: "AUUCACCCAGGUCAUAGGGUG [Fam2.2 aminoacylation ribozyme variant]"
  self-aminoacylation: 7.85

----------
# Test system: biotinyl-Phe-oxazolone
# procedureText: self-aminoacylation, catalytic enhancement (BFO) (fold over background); higher = more active; k-Seq, kA / k0A0; sequences stand for … in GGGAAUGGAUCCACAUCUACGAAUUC…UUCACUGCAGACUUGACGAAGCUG
Fewer inactive variants are shown than the library holds.

- sequenceData: "AAGUUUGCGAAUAGUCGCAAU [Fam3.1 aminoacylation ribozyme variant]"
  self-aminoacylation: 6.18
- sequenceData: "CUAGUUCAAACAUUCGGUCUG [Fam1A.1 aminoacylation ribozyme variant]"
  self-aminoacylation: 6.01
- sequenceData: "AUUCACCUGGGUCAUCGGGUC [Fam2.2 aminoacylation ribozyme variant]"
  self-aminoacylation: 5.84
